# test-target: T1, 4H3381-AA
# T1 chain: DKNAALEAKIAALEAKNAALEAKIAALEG
# test-name: two-hybrid library CCmax;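 also: natural log of median RNA to DNA barcode read ratio; higher means stronger binding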
# protocol-conditions: mean of both orientations
result-type: interaction score

binder="DKIAALKAENAALEAEIAALKAEIAALKG [4H2698-AA]" reported_result=-0.904

(Q) What value of measured interaction score is listed for DKIAALKAKIAALEAKNAALEAEIAALEG [4H2865-AA] ?
(A) -0.233

(Q) And DKIAALEAKNAALEAEIAALEAKIAALKG [4H2438-AA] ?
(A) -1.06
